B1: HDV Ribozyme (parent)
chain: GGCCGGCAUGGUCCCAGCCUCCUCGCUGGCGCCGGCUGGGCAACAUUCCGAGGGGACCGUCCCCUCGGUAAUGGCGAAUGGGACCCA

variants of: B1; assay: self-cleavage, relative activity (ratio to wild type); higher = more cleavage; co-transcriptional
readout.type: self-cleavage
Give bare numbers.

Answered examples (3):
G2U C75G | 0.0256
C21U G52A | 0.24
G6U C15A | 0

Batch lookup, self-cleavage per entry.
1. C14U U60C
2. A43U C86A
3. G1C G67U
4. C41G C75U
5. A51U G52C
6. C4A G35A
7. C14U G52C
8. G1U G55U

(A)
1.11
0.554
0.0739
0.095
0.849
0.0733
1.1
0.455

Each variant below has a recorded value; state its self-cleavage.
1. C64G G67C
2. A56U G74U
3. C61G G81U
4. C36U G82A
5. C7A C30G
6. C36G C64A
7. G5U C44G

(A)
[0.332, 0.718, 0.358, 0.327, 0.0791, 0.259, 0.217]

Batch request: self-cleavage per item, same order as input.
1. G2A C41G
2. C24A C58G
3. C49G U69C

(A)
0.0645
0.855
0.898
